Tested on: Fibroblast
assay.procedure: Multiplex assay against human fibroblast
Type: toxicity, cell-based
settings: 12 h, 10 µM, compound concentration 10 uM, replicate 2
Reported Population Mitochondria Different-Phenotype (%) is given for each of the following compounds.
property: Population Mitochondria Different-Phenotype (%)

compound	meas.value
CC(C)COc1ccc(CNC(=O)N(Cc2ccc(F)cc2)C2CCN(C)CC2)cc1 [PIMAVANSERIN]	32%
Br.CS(=O)(=O)Nc1c(O)ccc2c1CCCC2C1=NCCN1 (centres undefined)	5%
COc1cccc2c1c(NS(=O)(=O)c1ccc(Cl)s1)nn2Cc1cccc(CNC(=O)C(C)(C)O)c1	4%
CC(=O)Nc1cccc2c1c(Sc1ccc(Cl)cc1)c(C)n2CC(=O)O [AZD1981]	0%
N#Cc1c(Oc2cccc(OS(=O)(=O)CCCC(F)(F)F)c2)cccc1C(F)(F)F	3%
CCCCC1=NC2(CCCC2)C(=O)N1Cc1ccc(-c2ccccc2-c2nnn[nH]2)cc1 [IRBESARTAN]	3%
CN1CCN(c2cc(-c3ccccc3)nc(N)n2)CC1	12%
Cl.NCCc1ccc(O)c(O)c1 [DOPAMINE HYDROCHLORIDE]	6%
O=C1[C@H](Cc2ccc(O)cc2)N2C(=O)CCN(C(=O)NCc3ccccc3)[C@H]2CN1Cc1cccc2ccccc12	15%

---

Test system: HEK-293T
assay.procedure: Multiplex assay against HEK293T
Assay type: toxicity, cell-based
settings: human, 24 h, 10 µM, compound concentration 10 uM, replicate 1
Reported Population Pyknosed Nuclei (%) is given for each of the following molecules.
property: Population Pyknosed Nuclei (%)

molecule	property	meas.value
Cc1onc(-c2ccccc2Cl)c1C(=O)N(C)c1ccc(Cl)cc1	Population Pyknosed Nuclei (%)	12
CC(C)c1noc(N2CCC(COc3ccc(-c4ccc(S(C)(=O)=O)cc4)nc3)CC2)n1	Population Pyknosed Nuclei (%)	12
Br.CS(=O)(=O)Nc1c(O)ccc2c1CCCC2C1=NCCN1 (centres undefined)	Population Pyknosed Nuclei (%)	12
Cc1noc(-c2ccc(-c3ccc(CC(=O)O)cc3)cc2)c1NC(=O)O[C@H](C)c1ccccc1Cl	Population Pyknosed Nuclei (%)	16
CC(/C=C1\SC(=S)N(CCCC(=O)Nc2ccc(C(=O)O)c(O)c2)C1=O)=C\c1ccccc1	Population Pyknosed Nuclei (%)	16
Cc1cnc(-c2cc(N3CCN(C(=O)CCS(C)(=O)=O)CC3)ncc2Cl)c(C)c1	Population Pyknosed Nuclei (%)	8
N#Cc1c(Oc2cccc(OS(=O)(=O)CCCC(F)(F)F)c2)cccc1C(F)(F)F	Population Pyknosed Nuclei (%)	13
COc1cccc2c1c(NS(=O)(=O)c1ccc(Cl)s1)nn2Cc1cccc(CNC(=O)C(C)(C)O)c1	Population Pyknosed Nuclei (%)	16
O=C1[C@H](Cc2ccc(O)cc2)N2C(=O)CCN(C(=O)NCc3ccccc3)[C@H]2CN1Cc1cccc2ccccc12	Population Pyknosed Nuclei (%)	16
Cc1cccc(NC(=O)CN2CCC(c3ccccn3)CC2)c1.Cl.Cl	Population Pyknosed Nuclei (%)	17
Cc1c(CC(=O)O)c2cccnc2n1Cc1ccc(S(C)(=O)=O)cc1C(F)(F)F	Population Pyknosed Nuclei (%)	10
CCCCCC(O)/C=C/[C@H]1C(=O)CC(O)C1C/C=C\CCCC(=O)O (some centres undefined)	Population Pyknosed Nuclei (%)	13
CCCCC(=O)N(Cc1ccc(-c2ccccc2-c2nnn[nH]2)cc1)[C@H](C(=O)O)C(C)C	Population Pyknosed Nuclei (%)	7
CN(C)C(=O)Cn1cc(-c2ccc(-c3cncc4ccccc34)cc2)cn1	Population Pyknosed Nuclei (%)	14
CC(=O)Nc1cccc2c1c(Sc1ccc(Cl)cc1)c(C)n2CC(=O)O	Population Pyknosed Nuclei (%)	13
CC(C)(C)c1cc(NC(=O)Nc2ccc(-c3cn4c(n3)sc3cc(OCCN5CCOCC5)ccc34)cc2)no1	Population Pyknosed Nuclei (%)	12
CC(C)COc1ccc(CNC(=O)N(Cc2ccc(F)cc2)C2CCN(C)CC2)cc1	Population Pyknosed Nuclei (%)	31
Cl.NCCc1ccc(O)c(O)c1 [DOPAMINE HYDROCHLORIDE]	Population Pyknosed Nuclei (%)	12
COC[C@@H](c1ccc(C(F)(F)F)cc1)N1CCN(C2(C)CCN(C(=O)c3c(C)ncnc3C)CC2)C[C@@H]1C.O=C(O)/C=C\C(=O)O [VICRIVIROC MALEATE]	Population Pyknosed Nuclei (%)	13
CCc1cc2cc(NS(=O)(=O)c3ccc(C#N)cc3)ccc2n(CC)c1=O	Population Pyknosed Nuclei (%)	10
COc1ccccc1N1CCN(C[C@@H](C(=O)NC(C)(C)C)c2ccccc2)CC1.Cl.Cl	Population Pyknosed Nuclei (%)	23
CCCOc1ccc2[nH]cc(C3=CCNCC3)c2n1.Cl	Population Pyknosed Nuclei (%)	12
CN1CCN(c2cc(-c3ccccc3)nc(N)n2)CC1	Population Pyknosed Nuclei (%)	11
N#Cc1cc(F)cc(-c2nc(-c3ccc(F)cn3)no2)c1	Population Pyknosed Nuclei (%)	14
